meta.source: paper PMC5418239

Test system: CD4 T cell lines
Experiment: Peptide specificity of antibody-specific CD4 T cell lines from healthy donors (IFN-γ ELISPOT)
Type: cell-based, human
Conditions: CD4 T cell lines, 14 donors for Rtx and 15 donors for Ifx; IFN-γ ELISPOT
Description: Peripheral blood mononuclear cells (PBMCs) were obtained from blood cells collected at the Etablissement Français du Sang (EFS, Rungis, France), as buffy coat preparations from anonymous healthy donors who gave informed consent, in accordance with EFS guidelines. Antibody-specific CD4 T cell lines were generated as described previously ([28]). […] Spot number was determined by the AID ELISPOT Reader System (AID). […]
MEASURED ATTRIBUTE: number of healthy donors responding to the peptide

In the examples that follow, each entry is paired with its recorded number of healthy donors responding to the peptide.
Recorded number of healthy donors responding to the peptide for SSIHWYQQRTNGSPR [IL31–45, infliximab peptide] with CD4 T cell lines, please? two

Please give the result for EDTGVYYCSRNYYGS [IH91–105, infliximab peptide] too. two

Please give the result for PGRGLEWIGAIYPGN [RH41–55, rituximab peptide] too. two

Please give the result for QSPAILSVSPGERVS [IL6–20, infliximab peptide] too. two

Please give the result for SYNMHWVKQTPGRGL [RH31–45, rituximab peptide] too. two

# context switch: different sequence, same number of healthy donors responding to the peptide
Recorded number of healthy donors responding to the peptide for GDTSYNQKFKGKATL [RH56–70, rituximab peptide] with CD4 T cell lines, please? three
